Measured values drawn from patent US20230272055A1 for this set.

Target: T1, Recombinant MBP-mutCALR Type 1 fusion protein (human)
T1 construct: custom made at Cepter; also called recombinant mutCALR protein
Experiment: SPR, IgG captured, 1:1 fit, Exp. 1
value_kind: Kd

# binder, experimental_value
records = [
    ("anti-mutCALR antibody clone 47 (antibody, human IgG1, lambda, V domains shown, human IgG1) VH: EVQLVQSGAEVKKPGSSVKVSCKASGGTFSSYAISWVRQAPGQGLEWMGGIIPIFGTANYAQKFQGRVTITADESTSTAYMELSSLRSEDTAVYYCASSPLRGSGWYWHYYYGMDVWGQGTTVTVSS VL: SYELTQPPSVSVAPGKTARITCGGNKIGTKSVHWYQQKPGQAPVLVIYRDSNRPSGIPERFSGSNSGNTATLTISRAQAGDEADYYCQVWDSSTVVFGGGTKLTVLG", "3.62 nM"),
    ("anti-mutCALR antibody clone 29 (antibody, human IgG1, lambda, V domains shown, human IgG1) VH: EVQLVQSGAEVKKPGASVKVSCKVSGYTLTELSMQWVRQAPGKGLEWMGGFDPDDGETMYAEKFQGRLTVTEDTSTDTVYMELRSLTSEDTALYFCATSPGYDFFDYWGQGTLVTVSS VL: SYVLTQPPSVSVAPGKTARITCGGNNIGSKSVHWYQQKPGQAPVLVVYDDSDRPSGIPERFSGSNSGNTATLTISRVEAGDEADYYCQVWDSSSDLLIFGGGAKLTVLG", "8.16 nM"),
    ("anti-mutCALR antibody clone 36 (antibody, human IgG1, lambda, V domains shown, human IgG1) VH: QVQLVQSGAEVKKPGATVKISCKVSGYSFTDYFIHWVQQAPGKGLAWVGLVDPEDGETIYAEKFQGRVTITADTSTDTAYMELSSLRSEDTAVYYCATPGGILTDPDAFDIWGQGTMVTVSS VL: QSALTQPRSVSGSPGQSVTISCAGTGSDVGGYNYVSWYQHHPGKAPKLMIYDVNKRPSGVPDRFSGSKSGNTASLTISGLQAEDEADYYCSSYTSSSTFYVFGTGTKVTVLG", "2.95 nM"),
    ("anti-mutCALR antibody clone 19 (antibody, human IgG1, lambda, V domains shown, human IgG1) VH: EVQLVQSGAEVKKPGASVKVSCKVSGYTLTELSMQWVRQAPGKGLEWMGGFDPDDGETMYAEKFQGRLTVTEDTPTDTVYMELRSLTSEDTALYFCATSPGYDFFDYWGQGTLVTVSS VL: SYVLTQPLSVSVALGQTARITCGGSNIGDIRVHWYQQKPGQAPVLVVYDDSDRPSGIPERFSGSNSGNTATLTINRVEAGDEADYYCQVWDSSNDLLIFGGGTKLTVLG", "9.04 nM"),
    ("anti-mutCALR antibody clone 39 (antibody, human IgG1, kappa, V domains shown, human IgG1) VH: EVQLVQSGAEVKKPGSSVKVSCKASGGTFSSYAISWVRQAPGQGLEWMGLVDPEDGETIYAEKFQGRVTITADTSTDTAYMELSSLRSEDTAVYYCATEESYGPWGQGTLVTVSS VL: DIQLTQSPSSLSASVGDRVTITCQASQDISNYLDWYQQKPGKAPKLLIYDASNLETGVPSRFSGSGSGTEFTLTISSLQPEDFATYYCQQLNSYPLTFGGGTKLEIKR", "5.59 nM"),
]
